# testTarget: DUSP5 PD(WT) (Homo sapiens, UniProt Q16690)
# Construct: hexa-histidine (N); made in house; host or cells: E. coli BL21(DE3)
# Sequence (Q16690 178-319 limits assumed): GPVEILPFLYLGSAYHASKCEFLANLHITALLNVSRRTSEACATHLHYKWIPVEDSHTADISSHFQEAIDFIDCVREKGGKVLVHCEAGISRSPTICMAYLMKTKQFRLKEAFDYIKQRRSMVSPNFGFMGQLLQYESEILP
# experimentSummary: pNPP phosphatase activity assay with DUSP5 PD(WT)
# Format: biochemical
# conditionSet: 1 mL cuvettes, pNPP substrate
measurementLabel: IC50

Quick one: IC50 of [Na+].[Na+].[Na+].[O]=[V]([O-])([O-])[O-] [sodium orthovanadate] ? 8 nM

---

# testTarget: full-length DUSP5 (Homo sapiens, UniProt Q16690)
# Construct: an assay was development using ERK2 and full-length DUSP5
# Sequence (Q16690 whole entry): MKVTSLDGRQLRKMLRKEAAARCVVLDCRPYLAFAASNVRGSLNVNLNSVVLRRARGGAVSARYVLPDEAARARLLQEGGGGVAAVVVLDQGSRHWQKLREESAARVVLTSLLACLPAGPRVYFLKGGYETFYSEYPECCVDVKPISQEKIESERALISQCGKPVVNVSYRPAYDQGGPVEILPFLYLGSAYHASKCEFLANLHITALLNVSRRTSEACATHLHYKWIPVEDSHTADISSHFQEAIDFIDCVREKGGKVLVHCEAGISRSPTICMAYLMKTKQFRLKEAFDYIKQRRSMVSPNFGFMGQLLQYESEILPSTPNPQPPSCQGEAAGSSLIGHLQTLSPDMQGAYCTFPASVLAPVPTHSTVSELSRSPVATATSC
# experimentSummary: ERK dephosphorylation assay, full-length DUSP5 with pERK2 substrate, western blot
# Assay type: biochemical
# conditionSet: full-length DUSP5, pERK/ERK2 substrate
measurementLabel: IC50

- compound: "O=S(=O)(O)c1cc(O)c2c(S(=O)(=O)O)cccc2c1 [RR527]"
  IC50: "33 µM"

Test system full-length DUSP5 (Homo sapiens, UniProt Q16690); read-out IC50; what value for O=S(=O)(O)c1ccc2c(S(=O)(=O)O)cc(S(=O)(=O)O)cc2c1 [NTS, naphthalene 1,3,6-trisulfonate] ? 221 µM

# credit: patent US20180000778A1
